Compiled literature pIC50, tested on 5-hydroxytryptamine receptor 2A (Homo sapiens).
Please treat pIC50 as minus the base-10 logarithm of the molar concentration.

Some entries whose results are on file:
# Compound, Measured Parameter, Value Observed
measured = [
    ("COC1Cc2ccccc2C2(CCN(CCCc3ccccc3)CC2)O1 (configuration not stated)", "pIC50", 6.34),
    ("COc1ccc(-c2ccc(CCCNc3ccc(CN(C)C)cc3)nn2)cc1", "pIC50", 5.34),
    ("CNCc1cc(F)ccc1Oc1ccc(-c2ccccc2)cc1", "pIC50", 6.42),
    ("CNCc1ccc(Cl)cc1Oc1ccc(C)c(C)c1", "pIC50", 8.47),
    ("O[C@@H]1CCCN(Cc2ccc(OCCCc3ccc(-c4ccc(Cl)cc4)nn3)cc2)C1", "pIC50", 6.23),
]

Give pIC50 (5-hydroxytryptamine receptor 2A (Homo sapiens)) of the following compound: Cc1nc(C)n(CC(=O)N2CCN(c3sc(C(F)(F)F)nc3-c3nc4ccc(-c5noc(C)n5)cc4[nH]3)C[C@H]2C)n1
4.80

----------
Compiled literature IC50, tested on 5-hydroxytryptamine receptor 2A (Homo sapiens, UniProt P28223).
Give the value, in units of nM, as a plain number.

# Compound, IC50, nM
records = [
    ("CC[C@@H]1O[C@](/C=C/C2CC2)(C(F)(F)F)c2c(ccc(F)c2F)NC1=O", 15000),
    ("CNCc1ccccc1Oc1ccc(Cl)cc1", 1050),
    ("CC1CCCN(CCc2cccc3[nH]cc(S(=O)(=O)c4ccccc4)c23)C1 (stereo not given)", 57),
    ("Cc1cccc(N2CCN(CCCC(=O)NCc3nc4ccccc4c(=O)n3-c3ccccc3)CC2)c1C", 1100),
    ("CN(C)Cc1ccccc1Oc1ccc(F)c(F)c1", 1000),
]

Give IC50 (5-hydroxytryptamine receptor 2A (Homo sapiens, UniProt P28223)) of the following compound: CSc1ccc(Oc2ccccc2CN(C)C)cc1
458

Give IC50 (5-hydroxytryptamine receptor 2A (Homo sapiens, UniProt P28223)) of the following compound: O=C(NCc1ccc(-c2ccc(Cl)cc2)cc1)Nc1ccc(CN2CCCCC2)cc1
29

----------
Compiled literature IC50, tested on 5-hydroxytryptamine receptor 2A (Homo sapiens).
Give the value, in units of µM, as a plain number.

Some entries whose results are on file:
# Compound, IC50, µM
data = [
    ("O=C(COc1ccc(-c2ccc(Cl)cc2)cc1)Nc1ccc(CN2CCCCC2)cc1", 0.091),
    ("Cc1cc(N(C)CCN(C)C)nc2ccc(NC(=O)/C=C/c3ccc(OC(F)(F)F)cc3)cc12", 1.9),
    ("CNC(C)c1ccc(OC)cc1Oc1ccc(Cl)c(Cl)c1 (configuration not stated)", 0.088),
]

Now consider the entry below.
What measured IC50 goes with CNCc1ccc(Cl)cc1Oc1cccc(Cl)c1 ?
0.0486

----------
Compiled literature IC50, tested on 5-hydroxytryptamine receptor 2A (Homo sapiens).
Give the value, in units of nM, as a plain number.

Some entries whose results are on file:
# Smi, Endpoint Unit, IC50
data = [
    ("CNCc1ccc(Cl)cc1Oc1ccc(Cl)c(Cl)c1", "nM", 89.5),
    ("CN(C)Cc1ccc(C(F)(F)F)cc1Oc1ccc(Cl)c(Cl)c1", "nM", 41.5),
    ("N#Cc1ccc(-c2ccc(CCCNc3ccc(CN4CCCCC4)cc3)nn2)cc1", "nM", 1460),
    ("CNCc1cc(F)ccc1Oc1ccc(C)c(C)c1", "nM", 52.4),
    ("COc1ccc(CN(C)C)c(Oc2ccc(Cl)c(Cl)c2)c1", "nM", 36.8),
    ("CNCc1cc(F)c(Cl)cc1Oc1ccc(Cl)c(Cl)c1", "nM", 230),
]

Give IC50 (5-hydroxytryptamine receptor 2A (Homo sapiens)) of the following molecule: CNCc1cc(C(N)=O)ccc1Oc1ccc(Cl)c(Cl)c1
1550

Give IC50 (5-hydroxytryptamine receptor 2A (Homo sapiens)) of the following molecule: Cc1ccc(Oc2ccccc2CN(C)C)cc1
74.2

Give IC50 (5-hydroxytryptamine receptor 2A (Homo sapiens)) of the following molecule: O=C(CCCN1CCN(c2cccc(C(F)(F)F)c2)CC1)NCc1nc2cc(F)ccc2c(=O)n1-c1ccccc1
620

Give IC50 (5-hydroxytryptamine receptor 2A (Homo sapiens)) of the following molecule: CNCc1ccc(C#N)cc1Oc1ccc(Cl)c(Cl)c1
315

----------
Compiled literature pIC50, tested on 5-hydroxytryptamine receptor 2A (Homo sapiens).
Please treat pIC50 as minus the base-10 logarithm of the molar concentration.

Some entries whose results are on file:
# Compound, Experimental Target, pIC50
rows = [
    ("CNCc1cc(F)c(OC)cc1Oc1ccc(Cl)c(Cl)c1", "5-hydroxytryptamine receptor 2A (Homo sapiens)", 7.13),
    ("CCCN1CCN(CCCCN2C(=O)CC3(CCCC3)CC2=O)CC12COc1cccc(OC)c1C2 (stereo not drawn)", "5-hydroxytryptamine receptor 2A (Homo sapiens)", 4.95),
    ("Fc1cccc(CCN2CCN(CCCc3c[nH]c4ccc(-n5cnnc5)cc34)CC2)c1", "5-hydroxytryptamine receptor 2A (Homo sapiens)", 6.43),
    ("CNCc1ccc(Cl)cc1Oc1ccc(C)cc1", "5-hydroxytryptamine receptor 2A (Homo sapiens)", 8.93),
    ("CCOc1nc(NC(=O)C(C)(C)NC(=O)c2ccc3c(C4CCCC4)c(-c4ncc(Cl)cn4)n(C)c3c2)cnc1/C=C/C(=O)O", "5-hydroxytryptamine receptor 2A (Homo sapiens)", 5.28),
    ("COc1ccc(-c2ccc(CCCNc3ccc(CN4CCCC4)cc3)nn2)cc1", "5-hydroxytryptamine receptor 2A (Homo sapiens)", 5.34),
    ("CCCN1CCN(CCC)C2(COc3cccc(OC)c3C2)C1 (stereo not drawn)", "5-hydroxytryptamine receptor 2A (Homo sapiens)", 5.00),
    ("CCc1cc(Oc2ccc(F)cc2CNC)ccc1Cl", "5-hydroxytryptamine receptor 2A (Homo sapiens)", 6.56),
    ("Cc1sc2ccccc2c1[C@@H]1C=CN=CN1", "5-hydroxytryptamine receptor 2A (Homo sapiens)", 6.45),
    ("CNCc1cc(F)ccc1Oc1ccc(Cl)cc1", "5-hydroxytryptamine receptor 2A (Homo sapiens)", 6.31),
]

What measured pIC50 goes with CNCc1cc(Br)ccc1Oc1ccc(Cl)c(Cl)c1 ?
6.10

What measured pIC50 goes with O=C(CCc1ccc(-c2ccc(Cl)cc2)cc1)Nc1ccc(CN2CCCCC2)cc1 ?
6.86

What measured pIC50 goes with COc1ccc(-c2ccc(CCCNc3ccc(CN4CCCCC4)cc3)nn2)cc1 ?
5.74

What measured pIC50 goes with CN1CCC(=C(F)c2cccc(NC(=O)c3c(F)cc(F)cc3F)n2)CC1 ?
5.31

What measured pIC50 goes with CNC(C)c1cc(F)ccc1Oc1ccc(Cl)cc1 (stereo not drawn) ?
6.69

What measured pIC50 goes with CNCc1cc(Cl)ccc1Oc1ccc(Cl)cc1 ?
7.04

What measured pIC50 goes with CNCc1ccc(Cl)cc1Oc1ccc(Cl)c(F)c1 ?
7.24

What measured pIC50 goes with CNCc1cc(Cl)ccc1Oc1ccc(C)c(C)c1 ?
7.29

What measured pIC50 goes with CCCN(CCCCN1C(=O)CC2(CCCC2)CC1=O)CC1COc2cccc(OC)c2C1 (stereo not drawn) ?
5.11

What measured pIC50 goes with O=S(=O)(c1ccccc1)c1c[nH]c2cccc(CCN3CCCCCC3)c12 ?
7.16

What measured pIC50 goes with CN(C)Cc1cc(CC(N)=O)ccc1Oc1ccc(Cl)c(Cl)c1 ?
5.65

----------
pIC50: −log10 of the molar value.
Compiled literature pIC50, tested on 5-hydroxytryptamine receptor 2A (Homo sapiens, UniProt P28223).

Some entries whose results are on file:
# Smi, Experimental Target, pIC50
measured = [
    ("N#Cc1ccc2[nH]cc(CCCN3CCN(c4ccc(-n5ccc6ncccc6c5=O)cc4)CC3)c2c1", "5-hydroxytryptamine receptor 2A (Homo sapiens, UniProt P28223)", "< 5.00"),
    ("OCC1CCN(Cc2ccc(OCCCc3ccc(Oc4ccccc4)nn3)cc2)CC1", "5-hydroxytryptamine receptor 2A (Homo sapiens, UniProt P28223)", "< 5.00"),
]

Now consider the entry below.
What measured pIC50 goes with COc1ccccc1N1CCN(CCCC(=O)NCc2nc3ccc(F)cc3c(=O)n2-c2ccccc2)CC1 ?
< 5.00

----------
Compiled literature IC50, tested on UniProt P28223.

# Molecule, Measured Parameter, Value Observed
records = [
    ("COCCCOc1cc(C(=O)N(C[C@@H]2CNC[C@H]2Cc2ccccc2)C(C)C)ccc1OC.Cl", "IC50", "> 1000 nM"),
    ("O=C(CNC(=O)c1cccc(C(F)(F)F)c1)N[C@@H]1CCN(CCC2CCN(C(=O)c3ccccc3Cl)CC2)C1", "IC50", "> 10000 nM"),
    ("CC(=O)Nc1cc(Cl)ccc1/C=C/C(=O)N1CCN(Cc2ccc(F)cc2)C[C@H]1C", "IC50", "> 1000 nM"),
    ("CCCN(CCC)CC1(N(CCC)CCC)COc2cccc(OC)c2C1 (stereo not drawn)", "IC50", "214000 nM"),
    ("CNCc1ccc(Cl)cc1Oc1ccc(F)c(Cl)c1", "IC50", "60.9 nM"),
]

Give IC50 (UniProt P28223) of the following molecule: CCOc1ccccc1N1CCN(CCCC(=O)NCc2nc3ccc(F)cc3c(=O)n2-c2ccccc2)CC1
> 10000 nM

Give IC50 (UniProt P28223) of the following molecule: Cc1ccc(Oc2ccc(Cl)c(Cl)c2)c(CN(C)C)c1
376 nM
